The measured values listed here are drawn from patent US11254668B2.

// reported pIC50 for each item listed
# TARGET OR SYSTEM: JAK1 (Homo sapiens (Human), UniProt P23458)
# Sequence (P23458 875-1153): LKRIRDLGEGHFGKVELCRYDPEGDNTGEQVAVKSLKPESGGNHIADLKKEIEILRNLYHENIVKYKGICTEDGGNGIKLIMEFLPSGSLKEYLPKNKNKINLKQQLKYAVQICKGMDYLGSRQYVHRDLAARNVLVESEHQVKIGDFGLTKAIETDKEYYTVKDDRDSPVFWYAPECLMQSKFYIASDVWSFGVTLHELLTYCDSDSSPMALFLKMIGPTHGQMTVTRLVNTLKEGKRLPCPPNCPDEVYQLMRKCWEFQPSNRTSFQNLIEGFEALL
# EXPERIMENT DESCRIPTION: JAK Caliper Enzyme Assay at 1 mM ATP, JAK1
# Assay type: biochemical
Remember, pIC50 is on a log scale: it is -log10 of the molar concentration.

Please review the entries below; each comes with its answer.
COMPOUND | pIC50
N#CC[C@]1(n2ncc(-c3cc(-c4cc[nH]n4)cc4ncccc34)n2)C[C@H](C#N)C1 | 6.36
CCN1CC(CC#N)(n2ccc(-c3nc(-c4cc(CO)[nH]n4)cc4ncccc34)n2)C1 | 5.11

What does the data say about its pIC50? Entry: Cn1cc(-c2cc(-c3cnn([C@]4(CC#N)C[C@@H](C#N)C4)n3)c3cccnc3c2)c(N)n1
5.23

For N#CCC1(n2ncc(-c3cc(-c4ccccn4)cc4ncccc34)n2)CC(C#N)C1 (stereo not shown) then?
5.97
